- System: corn (Zea mays)
- Protocol text: Test A postemergence, visual injury rating 0-100
- Assay type: in vivo
- Measurement conditions: 500 g ai/ha, 0 to 100 scale
Doc: threshold 50 (exclusive). Items with Corn plant response rating beneath it return condition met; others return condition not met.

| Molecule | Target entity | Group |
| --- | --- | --- |
| CC1=[N+]([O-])C(C(=O)Nc2cccc(F)c2F)C(c2cccc(C#N)c2)C1 (racemic) | corn (Zea mays) | condition met |
| CC1=[N+]([O-])C(C(=O)Nc2cccc(F)c2F)C(c2ccc(C(F)(F)F)nc2)C1 (racemic) | corn (Zea mays) | condition not met |
| CC1=[N+]([O-])C(C(=O)Nc2cccc(F)c2F)C(c2cc(F)ccc2C)C1 (racemic) | corn (Zea mays) | condition met |
| CC1=[N+]([O-])[C@H](C(=O)Nc2cccc(F)c2F)[C@@H](c2ccc(C)cc2)C1 (relative stereo) | corn (Zea mays) | condition not met |
| COc1ccc(C2CC(C)=[N+]([O-])C2C(=O)Nc2cccc(F)c2F)cc1C(F)(F)F (racemic) | corn (Zea mays) | condition not met |
| COc1cc(OC)cc(C2CC(C)=[N+]([O-])C2C(=O)Nc2cccc(F)c2F)c1 (stereo not shown) | corn (Zea mays) | condition not met |

* * *

Foxtail, Giant plant response rating overview
- System: foxtail, giant (giant foxtail, Setaria faberii)
- Protocol text: Test A postemergence, visual injury rating 0-100
- Assay type: in vivo
- Measurement conditions: 125 g ai/ha, 0 to 100 scale
- Excerpt: […]

| Compound | Foxtail, Giant plant response rating |
| --- | --- |
| CC1=[N+]([O-])C(C(=O)Nc2cccc(F)c2F)C(c2ccc(F)c(C(F)(F)F)c2)C1 (racemic) | 70 |
| CC1=[N+]([O-])C(C(=O)Nc2cccc(F)c2F)C(c2ccc(C(F)(F)F)c(Cl)c2)C1 (racemic) | 70 |
| CC1=[N+]([O-])C(C(=O)Nc2cccc(F)c2F)C(c2ccc(C(F)(F)F)cn2)C1 (racemic) | 0 |
| CC1=[N+]([O-])[C@@H](C(=O)Nc2cccc(F)c2F)[C@H](c2ccc(C(F)(F)F)cc2)C1 (relative stereo) | 90 |
| CC1=[N+]([O-])C(C(=O)Nc2cccc(F)c2F)C(c2ccc(F)c(Oc3ccc(F)cn3)c2)C1 (racemic) | 0 |
| CC1=[N+]([O-])C(C(=O)Nc2cccc(F)c2F)C(c2ccc(C)c(C(F)(F)F)c2)C1 (racemic) | 50 |
| CC1=[N+]([O-])[C@@H](C(=O)Nc2cccc(F)c2F)[C@H](c2ccc(Cl)cc2)C1 (relative stereo) | 60 |
| CC1=[N+]([O-])C(C(=O)Nc2cccc(F)c2F)C(c2ccccc2)C1 (centres unmarked) | 60 |
| CC1=[N+]([O-])C(C(=O)Nc2cccc(F)c2F)C(c2cc(C)cc(Cl)c2)C1 (centres unmarked) | 80 |
| CC1=[N+]([O-])C(C(=O)Nc2cccc(F)c2F)C(c2ccc(C(F)(F)F)nc2)C1 (racemic) | 70 |
| CC1=[N+]([O-])C(C(=O)Nc2cccc(F)c2F)C(c2ccc(OC(F)(F)F)c(F)c2)C1 (racemic) | 80 |
| CC1=[N+]([O-])C(C(=O)Nc2cccc(F)c2F)C(c2cc(C)ccc2C)C1 (racemic) | 70 |
| CC1=[N+]([O-])C(C(=O)Nc2cccc(F)c2F)C(c2cccc(C)c2C)C1 (racemic) | 90 |
| CC1=[N+]([O-])C(C(=O)Nc2cccc(F)c2F)C(c2cc(F)cc(Oc3ccc(Cl)nc3)c2)C1 (racemic) | 10 |

* * *

- System: foxtail, giant (giant foxtail, Setaria faberii)
- Protocol text: Test A preemergence, visual injury rating 0-100
- Assay type: in vivo
- Measurement conditions: 125 g ai/ha
- From the text: […]
Measurement name: Foxtail, Giant plant response rating (0 to 100 scale)

| Molecule | Endpoint value |
| --- | --- |
| CC1=[N+]([O-])C(C(=O)Nc2cccc(F)c2F)C(c2cc(C)cc(C(F)(F)F)c2)C1 (stereo not shown) | 90 |
| CC1=[N+]([O-])C(C(=O)Nc2cccc(F)c2F)C(c2cccc(C(F)(F)F)c2C)C1 (racemic) | 90 |
| CC1=[N+]([O-])[C@H](C(=O)Nc2cccc(F)c2F)[C@@H](c2ccc(C(F)F)cc2)C1 (relative stereo) | 90 |
| CC1=[N+]([O-])C(C(=O)Nc2cccc(F)c2F)C(c2ccc(C(F)(F)F)cn2)C1 (racemic) | 20 |
| CC1=[N+]([O-])C(C(=O)Nc2cccc(F)c2F)C(c2cccc(Oc3ncc(Cl)cn3)c2)C1 (racemic) | 20 |
| CC1=[N+]([O-])C(C(=O)Nc2cccc(F)c2F)C(c2cccc(C)n2)C1 (racemic) | 0 |
| COc1cc(C)cc(C2CC(C)=[N+]([O-])C2C(=O)Nc2cccc(F)c2F)c1 (stereo not shown) | 90 |

* * *

- Tested on: ryegrass, Italian (Italian ryegrass, Lolium multiflorum)
- Protocol text: Test A preemergence, visual injury rating 0-100
- Format: in vivo
- Measurement conditions: 500 g ai/ha, 0 to 100 scale

| Molecule | Ryegrass, Italian plant response rating |
| --- | --- |
| CC1=[N+]([O-])C(C(=O)Nc2ccccc2)C(c2ccc(F)c(F)c2)C1 (racemic) | 0 |
| CC1=[N+]([O-])C(C(=O)Nc2cccc(F)c2F)C(c2cccc(C(C)C)c2)C1 (racemic) | 90 |
| CC1=[N+]([O-])C(C(=O)Nc2cccc(C#N)c2F)C(c2ccc(C(F)(F)F)cc2)C1 (racemic) | 20 |
| CC1=[N+]([O-])[C@H](C(=O)Nc2cccc(F)c2F)[C@@H](c2ccc(C)cc2)C1 (relative stereo) | 90 |

* * *

- Tested on: corn (Zea mays)
- Protocol text: Test A postemergence, visual injury rating 0-100
- Format: in vivo
- Measurement conditions: 500 g ai/ha, 0 to 100 scale
Corn plant response rating overview
Measurement name: Corn plant response rating

| Compound | Measurement name | Endpoint value |
| --- | --- | --- |
| CC1=[N+]([O-])C(C(=O)Nc2cccc(F)c2F)C(c2ccc(F)c(Oc3ncc(F)cn3)c2)C1 (racemic) | Corn plant response rating | 70 |
| CC1=[N+]([O-])C(C)(C(=O)Nc2cccc(F)c2F)C(c2ccc(C(F)(F)F)cc2)C1 (racemic) | Corn plant response rating | 70 |
| CC1=[N+]([O-])C(C(=O)Nc2cccc(F)c2F)C(c2ccc(C)c(Cl)c2)C1 (racemic) | Corn plant response rating | 70 |

* * *

Foxtail, Giant plant response rating overview
- System: foxtail, giant (giant foxtail, Setaria faberii)
- Protocol text: Test A postemergence, visual injury rating 0-100
- Type: in vivo
- Measurement conditions: 125 g ai/ha, 0 to 100 scale

| Compound | Foxtail, Giant plant response rating |
| --- | --- |
| CC1=[N+]([O-])C(C(=O)Nc2cccc(F)c2F)C(c2cccc(C)c2)C1 (racemic) | 80 |
| CC1=[N+]([O-])C(C(=O)Nc2cccc(F)c2F)C(c2cccc(Oc3ccc(F)cc3)c2)C1 (racemic) | 30 |
| CC1=[N+]([O-])C(C(=O)Nc2cccc(F)c2F)C(c2cccc(F)c2C)C1 (racemic) | 80 |
| CC1=[N+]([O-])C(C(=O)Nc2cccc(F)c2F)C(c2ccc(Br)cn2)C1 (racemic) | 0 |
| CC1=[N+]([O-])C(C(=O)Nc2cccc(F)c2F)C(c2cccc(C3OCCO3)c2)C1 (racemic) | 10 |
| CCc1cc(CC)cc(C2CC(C)=[N+]([O-])C2C(=O)Nc2cccc(F)c2F)c1 (racemic) | 80 |
| CC1=[N+]([O-])C(C(=O)Nc2cccc(F)c2F)C(c2cc(C)nc(OC(F)F)c2)C1 (racemic) | 80 |
| CC1=[N+]([O-])C(C(=O)Nc2cccc(F)c2F)C(c2ccc(C(F)(F)F)c(C)c2)C1 (racemic) | 60 |
| CC1=[N+]([O-])[C@@H](C(=O)Nc2cccc(F)c2F)[C@H](c2cccc(Oc3ncc(F)cc3F)c2)C1 | 0 |
| CC1=[N+]([O-])C(C(=O)Nc2cccc(F)c2F)C(c2ccc(C)c(Br)c2)C1 (racemic) | 40 |
| CC1=[N+]([O-])C(C)(C(=O)Nc2cccc(F)c2F)C(c2ccc(C(F)(F)F)cc2)C1 (racemic) | 0 |
| CC1=[N+]([O-])C(C(=O)Nc2cccc(F)c2F)C(c2cccc(C(C)C)c2)C1 (racemic) | 90 |
| CCC1=[N+]([O-])C(C(=O)Nc2cccc(F)c2F)C(c2ccc(C(F)(F)F)cc2)C1 (racemic) | 0 |
| COc1cc(C2CC(C)=[N+]([O-])C2C(=O)Nc2cccc(F)c2F)ccc1C(F)(F)F (centres unmarked) | 60 |
| CC1=[N+]([O-])C(C(=O)Nc2cccc(F)c2F)C(c2ccc(F)c(Cl)c2)C1 (racemic) | 50 |
| CC1=[N+]([O-])C(C(=O)Nc2cccc(F)c2F)C(c2cccc(C(F)(F)F)c2C)C1 (racemic) | 80 |
| CC1=[N+]([O-])C(C(=O)Nc2cccc(F)c2F)C(c2cc(C)c(F)c(C)c2)C1 (racemic) | 40 |
| CC1=[N+]([O-])C(C(=O)Nc2cccc(F)c2F)C(c2ccc(F)c(F)c2)C1 (racemic) | 60 |
| CC1=[N+]([O-])C(C(=O)Nc2cccc(F)c2F)C(c2ccc(C)c(Cl)c2)C1 (racemic) | 50 |
| CC1=[N+]([O-])C(C(=O)Nc2cccc(F)c2F)C(c2cccc(C)n2)C1 (racemic) | 0 |
| CC1=[N+]([O-])C(C(=O)Nc2cccc(F)c2F)C(c2ccc(F)c(Oc3ncc(F)cn3)c2)C1 (racemic) | 0 |
| CC1=[N+]([O-])[C@@H](C(=O)Nc2cccc(F)c2F)[C@H](c2cccc(Oc3ccc(F)cn3)c2)C1 | 50 |
| CC1=[N+]([O-])[C@H](C(=O)Nc2cccc(F)c2F)[C@@H](c2ccc(C(F)F)cc2)C1 (relative stereo) | 80 |
| CC1=[N+]([O-])[C@H](C(=O)Nc2cccc(F)c2F)[C@@H](c2ccc(F)c(OC(F)(F)C(F)F)c2)C1 | 70 |
| COc1cc(C)cc(C2CC(C)=[N+]([O-])C2C(=O)Nc2cccc(F)c2F)c1 (centres unmarked) | 70 |
| CC1=[N+]([O-])C(C(=O)Nc2cccc(F)c2F)C(c2ccc(Cl)c(C(F)(F)F)c2)C1 (racemic) | 20 |
